Just for reference, paper PMC5356278 is where these values come from.

Km values by entry
Substrate: CCCCCCC=O
experiment.description: purified protein
Type: biochemical, Synechococcus elongatus
conditions: NADH 750 uM, PMS 75 uM, catalase 1 mg/ml, ferrous ammonium sulfate 80 uM, 100 mM HEPES pH 7.2, 100 mM KCl

[
  {
    "protein": "cADO-1593 (1593) (Synechococcus elongatus PCC 7942 = FACHB-805; F150Y/Q49H) (protein, codon-optimised synthetic gene, E. coli BL21(DE3), nickel column; apo enzyme reconstituted with stoichiometric ferrous iron (diferrous form)) MPQLEASLELDFQSESYKDAYSRINAIVIEGEQEAFDNYNRLAEMLPDHRDELHKLAKMEQRHMKGFMACGKNLSVTPDMGFAQKFFERLHENFKAAAAEGKVVTCLLIQSLIIECFAIAAYNIYIPVADAFARKITEGVVRDEYLHRNYGEEWLKANFDASKAELEEANRQNLPLVWLMLNEVADDARELGMERESLVEDFMIAYGEALENIGFTTREIMRMSAYGLAAV",
    "Km, µM": 330
  },
  {
    "protein": "cADO-1593 (1593) (Synechococcus elongatus PCC 7942 = FACHB-805; F150Y) (protein, codon-optimised synthetic gene, E. coli BL21(DE3), nickel column; apo enzyme reconstituted with stoichiometric ferrous iron (diferrous form)) MPQLEASLELDFQSESYKDAYSRINAIVIEGEQEAFDNYNRLAEMLPDQRDELHKLAKMEQRHMKGFMACGKNLSVTPDMGFAQKFFERLHENFKAAAAEGKVVTCLLIQSLIIECFAIAAYNIYIPVADAFARKITEGVVRDEYLHRNYGEEWLKANFDASKAELEEANRQNLPLVWLMLNEVADDARELGMERESLVEDFMIAYGEALENIGFTTREIMRMSAYGLAAV",
    "Km, µM": 200
  },
  {
    "protein": "cADO-1593 (1593) (Synechococcus elongatus PCC 7942 = FACHB-805; L146T) (protein, codon-optimised synthetic gene, E. coli BL21(DE3), nickel column; apo enzyme reconstituted with stoichiometric ferrous iron (diferrous form)) MPQLEASLELDFQSESYKDAYSRINAIVIEGEQEAFDNYNRLAEMLPDQRDELHKLAKMEQRHMKGFMACGKNLSVTPDMGFAQKFFERLHENFKAAAAEGKVVTCLLIQSLIIECFAIAAYNIYIPVADAFARKITEGVVRDEYTHRNFGEEWLKANFDASKAELEEANRQNLPLVWLMLNEVADDARELGMERESLVEDFMIAYGEALENIGFTTREIMRMSAYGLAAV",
    "Km, µM": 340
  },
  {
    "protein": "cADO-1593 (1593) (Synechococcus elongatus PCC 7942 = FACHB-805; W178R) (protein, codon-optimised synthetic gene, E. coli BL21(DE3), nickel column; apo enzyme reconstituted with stoichiometric ferrous iron (diferrous form)) MPQLEASLELDFQSESYKDAYSRINAIVIEGEQEAFDNYNRLAEMLPDQRDELHKLAKMEQRHMKGFMACGKNLSVTPDMGFAQKFFERLHENFKAAAAEGKVVTCLLIQSLIIECFAIAAYNIYIPVADAFARKITEGVVRDEYLHRNFGEEWLKANFDASKAELEEANRQNLPLVRLMLNEVADDARELGMERESLVEDFMIAYGEALENIGFTTREIMRMSAYGLAAV",
    "Km, µM": 340
  },
  {
    "protein": "cADO-1593 (1593) (Synechococcus elongatus PCC 7942 = FACHB-805; F150Y/N123H/Q49H) (protein, codon-optimised synthetic gene, E. coli BL21(DE3), nickel column; apo enzyme reconstituted with stoichiometric ferrous iron (diferrous form)) MPQLEASLELDFQSESYKDAYSRINAIVIEGEQEAFDNYNRLAEMLPDHRDELHKLAKMEQRHMKGFMACGKNLSVTPDMGFAQKFFERLHENFKAAAAEGKVVTCLLIQSLIIECFAIAAYHIYIPVADAFARKITEGVVRDEYLHRNYGEEWLKANFDASKAELEEANRQNLPLVWLMLNEVADDARELGMERESLVEDFMIAYGEALENIGFTTREIMRMSAYGLAAV",
    "Km, µM": 350
  }
]
